Measured TGI values are reported for all entries that follow.
Test system: SK-MEL-28 melanoma
Assay Summary: NCI tumour cell line growth inhibition, 48 h
Experimental Readout: TGI

>>> print(df.to_string())
                                    molecule  test_value
 0  Cc1ccc(Oc2ccc([N+](=O)[O-])cc2[N+](=O)[O-])c(C)c1    > 100 µM
 1  Fc1ccc2[nH]cc(SSc3c[nH]c4ccc(F)cc34)c2c1     20.3 µM
 2  Cc1cc2nc(N3C(=O)/C(=C/c4ccc(Cl)cc4)N=C3c3ccccc3)sc2cc1C    > 100 µM
 3  O=C1c2ccccc2-c2nc(/C=C/c3ccccc3)cc3c2c1nc1ccccc13     44.6 µM
 4  CC(NC(C#N)CC12CC3CC(CC(C3)C1)C2)c1ccccc1 (stereo not drawn)    > 100 µM
 5  NNC(=O)/C(NC(=O)c1ccccc1)=C(\N)c1ccc(Cl)cc1    > 100 µM
 6  CC1(CC2=C(C(=O)NCCO[Si](C)(C)C(C)(C)C)C3(OCCO3)C2=O)OCCO1    > 100 µM
 7  C1COCCOCCOCCOCCO1.CC(=O)[CH-]C(C)=O.CC(=O)[CH-]C(C)=O.CC(=O)[CH-]C(C)=O.[V]     23.9 µM
 8  COc1ccc(-c2cc(=O)c3c(OC)c(OC)c(OC)c(OC)c3o2)c(OC)c1    > 100 µM
 9  CCOC(=O)C(C(=O)OCC)=C1NC2(c3ccccc3Nc3ccc(C)cc32)C(C(=O)OC)S1 (stereo not drawn)    > 100 µM
10          O=[N+]([O-])c1ccc2nc3ccccc3cc2c1     10.7 µM
11    CCOC(=O)/C(=C\c1ccc[nH]1)C(=O)c1ccccc1    > 100 µM
12           CCc1nc2ccc(C(F)(F)F)cc2[nH]c1=O    > 100 µM
13  CC/C=C/c1cc2cc[nH]c2c2c1C(C)C[C@@H]2C (stereo partly drawn)     84.4 µM
14        O=C(N/N=C\c1ccccc1)Nc1cccc2ccccc12     51.5 µM
15       COc1ccccc1/C=C/C(=O)/C=C/c1ccccc1OC     3.18 µM
16          c1ccc(C2=NCCc3cc4c(cc32)OCO4)cc1    > 100 µM
17               Nc1ncnc2c1cnn2Cc1ccc(Cl)cc1    > 100 µM
18          O=C1c2ccccc2C(=O)c2c(O)ccc(O)c21    > 100 µM
19  CC(=O)O[C@H]1C[C@H]2C(=S)Nc3ccccc3C(=S)N2C1    > 100 µM
20    c1ccc(-c2cc(-c3cccs3)c(-c3cccs3)o2)cc1    > 100 µM
21  COc1ccc(/C=N/NC(=O)c2cnc3[nH]c(=O)n(C)c(=O)c3c2)cc1    > 100 µM
22  COc1ccc2c(c1)/C(=C/c1cc(OC)c(OC)c(OC)c1)C(=O)N2C     22.5 µM
23  NC(CC1=CCC=CC1)C(=O)O (stereo not drawn)    > 100 µM
24  O=[N+]([O-])c1ccc2c(c1)c(S(=O)(=O)O)cc1nonc12    > 100 µM
25  Cc1nc(C(N)=S)sc1C(=O)C/C(=N/N)C(=O)Nc1ccc(Cl)cc1    > 100 µM
26  C1=Nc2ccccc2C=Nc2ccccc2C=Nc2ccccc2C=Nc2ccccc21.[Cl-].[Pt+2]     64.4 µM
27  CC1(O)CCC2(C#N)CCC1C2O (stereo not drawn)    > 100 µM
28  CCOC(=O)Cn1c(=O)c2cc(-c3ccccc3)cc3c(Cl)nc4c(OC)c(OC)cc1c4c32     55.4 µM
29  Clc1ccc(Nc2ccnc(NCCCNc3ccnc4cc(Cl)ccc34)n2)cc1     3.07 µM
30     O=c1cc(N=Nc2ccc(Cl)cc2)[nH]c(=O)[nH]1     13.5 µM
31  COc1ccc2c(c1)C1(C(=O)N2)C(C#N)=C(c2ccccc2)Nc2c1c(-c1ccccc1)nn2-c1ccccc1 (stereo not drawn)      5.4 µM
32  NS(=O)(=O)c1ccc(NC(=O)c2cccc3cc4ccccc4nc23)cc1    > 100 µM
